# Tested on: COLO 205
# procedure.details: NCI tumour cell line growth inhibition, 48 h
Calls of active or inactive are those of the source. Cut-off read from the data, not from the text of the source: active = GI50 up to about 1.1 µM and inactive = higher.
quantity.kind: GI50

{"molecule.smiles": "c1ccc(/N=c2/sc3ccccc3s/c2=N/c2ccccc2)cc1", "meas.value": "1.92 µM (inactive)"}
{"molecule.smiles": "C(=C\\c1cc(-c2ccc3ccccc3n2)nc2ccc3ccccc3c12)/c1ccc2ccccc2n1", "meas.value": "> 100 µM (inactive)"}
{"molecule.smiles": "CC(=O)O[C@H]1C[C@]2(O)[C@@H]3CC[C@@H]4C[C@@H](O)CC[C@]4(C)[C@H]3CC[C@]2(C)[C@H]1C1=CC(=O)OC1", "meas.value": "0.236 µM (active)"}
{"molecule.smiles": "CCC1(COC(NC(=O)c2ccccc2)(C(F)(F)F)C(F)(F)F)COC1", "meas.value": "> 100 µM (inactive)"}
